assay: yeast display, Sf9 membrane polyspecificity reagent, FACS + sequencing; frameworks hold sequencing errors
READOUT TYPE: polyreactivity (PSR sort gate)

Note to self: polyreactivity (PSR sort gate) recorded for QVQLVESGGGLVQAGGSLRLSCAASGSTISRYAMGWYRHAPGKERELVAAISWNGGDTYYADSVKGRFTISRDYAKNTVFLQMNSLKPEDTAVYYCNTPRRITRAGYWAGSRYNYWGQGTQVTVSS was high polyreactivity

Note to self: polyreactivity (PSR sort gate) recorded for QVQLVESGGGLVQAGGSLRLSCAASGRTFHYYAMGWYRQAPGKERELVAGISRRGGSTSYADSVKGRFTISRDNAKNTLYLQMNSLKPEDTAVYYCNADRVTFSWPVNYYWVDYWGQGTQVTVSS was high polyreactivity

Note to self: polyreactivity (PSR sort gate) recorded for QVQLVDSGGGLVQAGGSLRLSCAASGRIFQPNAMGWYRQAPGKEMEFVAAISSSGGSTFYADSVKGRFTISRDNAKNTVYLQMNSLKPEDTAVYYCAKRYGYTEYYYWGQGTQVTVSS was high polyreactivity

* * *

assay: yeast display, Sf9 membrane polyspecificity reagent, FACS + sequencing; frameworks hold sequencing errors
READOUT TYPE: polyreactivity (PSR sort gate)

Note to self: polyreactivity (PSR sort gate) recorded for QVQVEESGGGFDQAGGSLRLSCAASGSIFYYNAMGWYRQAPGKERELVAAISGRTGSTYYADSVKGRFTISRDNAKNTVYLQMNSLKPEDTAVYYCNALFLGYYYYWGQGTQVTVSS was high polyreactivity

Note to self: polyreactivity (PSR sort gate) recorded for QVQLVESGGGLVQAGGSLRLSCAASGIIFTGYTMGWYRQAPGKERELVAAITWRGGSTYYADSVKGRFTISRDNAKNTVYLQMNSLKPEDTAVYYCAAEGWYSWDDDYWGQGTQVTVSS was low polyreactivity

Note to self: polyreactivity (PSR sort gate) recorded for QVQLVESGGGLVQAGGSLRLSCAASGSTFHRYPMGWYRQAPGKERELVAAISVRTGSTYYADSVKGRFTISRDNAKNTDYLQINRLTPEDTAVYYCAVGKQINGKIYRYDYWGQGTQVTVSS was high polyreactivity

Note to self: polyreactivity (PSR sort gate) recorded for QVQLVESGGGLVQAGGSLRLICAASGSTFEYYAMGWYRPAPGKERELVAAINGIGGSTTYADSVKGRFTISRDNAKNTVYLQMNSLKPEDSAVYYCNADVARSKSQASAYDYWGQGTQVTVSS was low polyreactivity

Note to self: polyreactivity (PSR sort gate) recorded for QVQLVESRGGIVQAGGSLRLSCAASGFTFYFYAKGWYRQAPGKERELVAGISRGSRTNYADSVKGRFTISRDNAKNTVYLQMNSLKPEDTAVYYCAAEVSYWGLGTQVTVSS was low polyreactivity

Continuing:
Note to self: polyreactivity (PSR sort gate) recorded for QVQLVESGGGLVQAGGSLRLICAASGSTFPGYAMGWYRQAPGKERELVATITRRGGSTYYADSVKGRFTISRDNAKNTVYLQMNSLKPEDTAVYYCNAVDYTVWLFPYDTGVDYWGQGTQVTVSS was low polyreactivity

Note to self: polyreactivity (PSR sort gate) recorded for QVQLVESGGGLVQAGGSLRLSCAASGRTFAIYAMGWYRQAPGKERELVAGITIRGGRTYYADSVKGRFTISRYIAKNTVYLQMNSLKPEDTAVYYCNARGWYEYGWGQGTQVTVSS was high polyreactivity

* * *

assay: yeast display, Sf9 membrane polyspecificity reagent, FACS + sequencing; frameworks hold sequencing errors
READOUT TYPE: polyreactivity (PSR sort gate)

Note to self: polyreactivity (PSR sort gate) recorded for QVQLVDSGGGLVQAGGSLRVSCAASGNTFVTNAMGWSRQAPGKERELDAAITASVTSTYYADSVKGRFTISRDNAKITVYLQLNSLKPEDPAVYYCAAKTYSRKRVRMDYWGQGTQVTVSS was high polyreactivity

Note to self: polyreactivity (PSR sort gate) recorded for QVQLVESGGGLVQAGGSLRLSCAASGRTFSTYAMGWYRQAPGKERELVAAITTSGGNTYYADSVKGRFTISRDNAKNTVYLQMNSLKPEDTAVYYCNAKQQPYGGTDYDYWGQGTQVTVSS was low polyreactivity

Note to self: polyreactivity (PSR sort gate) recorded for QVQLVESGGRLVQAGGSLRLSCAASGSNSFRYAIGWDRQAPGKERELVARISSGGSTNYADSVKGRFTISRDNAKNTVYLQMNRLKPEDTAVYYCAKSFRYSVYPYSHYDYWGQGTQVTVSS was high polyreactivity

Note to self: polyreactivity (PSR sort gate) recorded for QVQHVESGGGLVQAGGSLRLSCAASGRIFSFYVMGWYRQAPGKERELVAVIRKNGGSTYYADSVKGRFTISRDNAKNTVYLQMNSLKPEDTAVYYCTARSVPRYGYWGLGTQVTVSS was high polyreactivity

// moving on: another record for polyreactivity (PSR sort gate)
Note to self: polyreactivity (PSR sort gate) recorded for QVQLVESGGGLVQAGVILRLSCAASGLIFGLYAMGWYRQAPGKERELVAAISYRTDSTYADSVKGRFTISRDNAKNTVYLQMNSLKPEDTAVYYCAADLRVSVRYYYWGQGTQVTVSS was low polyreactivity

* * *

test: yeast display, Sf9 membrane polyspecificity reagent, FACS + sequencing; frameworks hold sequencing errors
READOUT TYPE: polyreactivity (PSR sort gate)

These recorded examples may help you get a feel for the data.
Note to self: polyreactivity (PSR sort gate) recorded for QVQLVESGGGLVQAGGSLRLSCAASGRIFGYYAMGWYRPAPGKERELVAGISARGGSTYYADSVKGRFTISRDNAKNTVYLQMNSLKPEDTAVYYCNKTRHDWFRTDSIRESAEYDYWGQGTQVTVSS was low polyreactivity

Note to self: polyreactivity (PSR sort gate) recorded for QVQLVESGGGLVQAGGSLRLSCAAYGTIFFSYSMGWYRQAPGKERELVADIRSSDDDTYYADSVKGRFTISRDNAKNTGYLQMNSMKPEDTAVYYCNADFGYWWDGRRYDYWGQGTQVTVSS was low polyreactivity

Note to self: polyreactivity (PSR sort gate) recorded for QVQLVESGGGLVQAGGSLRLSCASSGSTFYTNAMGWYRQAPGKESEFVDAISWSGSSTYADSVKGRFTISRDNAKITVYLQMNSLKPEDTAVYYCAKATSSLYHYRYDYWGQGTQVTVSS was low polyreactivity

Note to self: polyreactivity (PSR sort gate) recorded for QVQIVESGGGVVQAGGILRLSCAASGYTFTVYGMGWYRQAPGKERELVARITWSGGTTRYADSVKGRFTISRDNAKNNVYLQMNSLKPEDTAVYYCAASYWRPKRYRYDYWGQGTQVTVSS was high polyreactivity

// moving on: another record for polyreactivity (PSR sort gate)
Note to self: polyreactivity (PSR sort gate) recorded for QVQLVESGGGLVQAGGSLRLSCAASGSIFYRYAMGWYRQAPGKERELVAAISSRGGSTNYADSVKGRFTISRDNAKNTVYLQMNSLKPEDTAVYYCAAGWNYLRQFNFNYWGQGTQVTVSS was high polyreactivity

* * *

assay: yeast display, Sf9 membrane polyspecificity reagent, FACS + sequencing; frameworks hold sequencing errors
READOUT TYPE: polyreactivity (PSR sort gate)

Note to self: polyreactivity (PSR sort gate) recorded for QVQLVESGGGLVQAGGSLRLSCAASGRILPSNAMGWYRQAPGKEREFVAGISGSGGSTYYADSVKGRFTISRDNAKNTVYLQMNSLKPEDTAVYYCAAGRAYDGTKHDYWGQGTQVTVSS was high polyreactivity

Note to self: polyreactivity (PSR sort gate) recorded for QVQLVESGGGLVQAGGSLRLSCAASGSIFDSNTRGWYRQAPGKERELVAAINWSGGRTYYADSVKGRFTISRDNPNNTVYLQMNSLKPEDTAVYYCARPSYYATYYPQPFGYNYWGQGTQVTVSS was high polyreactivity

* * *

experiment: yeast display, Sf9 membrane polyspecificity reagent, FACS + sequencing; frameworks hold sequencing errors
READOUT TYPE: polyreactivity (PSR sort gate)

These recorded examples may help you get a feel for the data.
Note to self: polyreactivity (PSR sort gate) recorded for QDQLVESGGGLVHAGGSLRLSCAASVSTFTRYDMGRYRQAPGKERELVDAISWSGGRTHYADSVKGRFTISRENAKNTVYLQMNSLKPEDTAVYYCNTLYDYWYDYWGQGSQVTVSS was low polyreactivity

Note to self: polyreactivity (PSR sort gate) recorded for QVQLVESGRGLVQAGGSLRLSCAASGRTFPFYAMGWYRQAPGKEREFVAAITASGDSTYYADSVKGRFTISRDNAKNTVYFQMHSLKPEDTAVYYCAADLPVWYVTRYDYWGQATQVTVSS was low polyreactivity

Note to self: polyreactivity (PSR sort gate) recorded for QVQLVESGGGLVQAGGSLRLSCAASGRILGRYAMGWYRQAPGKERELVAAITARTGSTYYADSVKGRFTISRDNAKNTVYLQMNSLKPEDTAVYYCAAERGWWRNDFDYWGQGTQVTVSS was high polyreactivity

Note to self: polyreactivity (PSR sort gate) recorded for QVQLQESGGGMVQAGGSLRLTCAATGYISSCYPMRWYRQAPGKEREFVATIAPGATTYYADSVKGRFTISRDYAKNTVYLQMNSQKPEATAVYVCAAGPENIDFYSYWGQGTQVTVSS was low polyreactivity

// moving on: another record for polyreactivity (PSR sort gate)
Note to self: polyreactivity (PSR sort gate) recorded for QVQLVESGGGLVQAGGRLRLSCAASGRIFYNYAMGWYRQAPGKERELVAAISVSGGSTYYADSVKGRFTISRDNAKNTVYLQMISMKPEDTAVYYCATYSSRQRKSSYYYGGQGTQVTVSS was high polyreactivity
